Listing of recorded EC50 by entry.
Biological target: T1, Recombinant DR3-Fc (R&D Systems, cat. #943-D3) (UniProt Q93038 25-199, limits assumed)
T1 construct: dimeric MW~92 kDa; also called DR3 receptor; Fc-DR3; not shown: Fc part of the bought fusion
T1 sequence (looked up): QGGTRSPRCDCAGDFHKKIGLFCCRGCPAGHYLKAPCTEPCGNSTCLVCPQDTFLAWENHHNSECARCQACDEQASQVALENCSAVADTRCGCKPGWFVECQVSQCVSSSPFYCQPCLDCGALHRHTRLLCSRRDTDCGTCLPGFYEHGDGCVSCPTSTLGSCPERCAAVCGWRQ
Experiment: ELISA, DR3-Fc immobilized
Use nM as the unit, but write only the number.

Here is how some binders turned out for EC50.
{"binder": "TL1W92 (His-TEV-TL1A M158Y) (ligand, also called TL1W92 (M158Y)) HHHHHHENLYFQGLKGQEFAPSHQQVYAPLRADGDKPRAHLTVVRQTPTQHFKNQFPALHWEHELGLAFTKNRMNYTNKFLLIPESGDYFIYSQVTFRGYTSECSEIRQAGRPNKPDSITVVITKVTDSYPEPTQLLMGTKSVCEVGSNWFQPIYLGAMFSLQEGDKLMVNVSDISLVDYTKEDKTFFGAFLL", "EC50 (nM)": 16.6}
{"binder": "TL1W80 (His-TEV-TL1A K111A) (ligand, also called TL1W80 (K111A)) HHHHHHENLYFQGLKGQEFAPSHQQVYAPLRADGDKPRAHLTVVRQTPTQHFANQFPALHWEHELGLAFTKNRMNYTNKFLLIPESGDYFIYSQVTFRGMTSECSEIRQAGRPNKPDSITVVITKVTDSYPEPTQLLMGTKSVCEVGSNWFQPIYLGAMFSLQEGDKLMVNVSDISLVDYTKEDKTFFGAFLL", "EC50 (nM)": 30}

Recorded EC50 (binder TL1W38 (His-TEV-TL1A L123K) (ligand, also called TL1W38 (L123K)) HHHHHHENLYFQGLKGQEFAPSHQQVYAPLRADGDKPRAHLTVVRQTPTQHFKNQFPALHWEHEKGLAFTKNRMNYTNKFLLIPESGDYFIYSQVTFRGMTSECSEIRQAGRPNKPDSITVVITKVTDSYPEPTQLLMGTKSVCEVGSNWFQPIYLGAMFSLQEGDKLMVNVSDISLVDYTKEDKTFFGAFLL ): 29.4
